# System: Radical scavenging activity
# assay_text: Antioxidant activity assessed as DPPH radical scavenging activity by UV-visible spectrophotometry
# Assay type: functional
The source made the active and inactive calls. No cut-off for these calls is given here.
Give one outcome, nothing more. List: active, inactive

Below, 4 compounds whose answers are already recorded.
>>> df
                               query_smiles  class_label
0  O=C(O)[C@]1(O)C[C@@H](O)[C@@H](O)[C@H](O)C1     inactive
1  CCCNC(=O)[C@]1(O)C[C@@H](O)[C@@H](O)[C@H](O)C1     inactive
2           O=C1O[C@H]([C@@H](O)CO)C(O)=C1O       active
3                 O=C(O)/C=C/c1ccc(O)c(O)c1       active

--- query ---
stdin: Fill in: this test's call for `O=C(/C=C/c1ccc(O)c(O)c1)O[C@@H]1C[C@](O)(C(=O)O)C[C@@H](O)[C@H]1O` is ___
stdout: active
